# maps each entry to its Mean normalized OD
Biological target: T1, human recombinant soluble ACE2 (human, UniProt Q9BYF1 18-740)
T1 construct: also called hrsACE2
T1 sequence (Q9BYF1 18-740 limits assumed): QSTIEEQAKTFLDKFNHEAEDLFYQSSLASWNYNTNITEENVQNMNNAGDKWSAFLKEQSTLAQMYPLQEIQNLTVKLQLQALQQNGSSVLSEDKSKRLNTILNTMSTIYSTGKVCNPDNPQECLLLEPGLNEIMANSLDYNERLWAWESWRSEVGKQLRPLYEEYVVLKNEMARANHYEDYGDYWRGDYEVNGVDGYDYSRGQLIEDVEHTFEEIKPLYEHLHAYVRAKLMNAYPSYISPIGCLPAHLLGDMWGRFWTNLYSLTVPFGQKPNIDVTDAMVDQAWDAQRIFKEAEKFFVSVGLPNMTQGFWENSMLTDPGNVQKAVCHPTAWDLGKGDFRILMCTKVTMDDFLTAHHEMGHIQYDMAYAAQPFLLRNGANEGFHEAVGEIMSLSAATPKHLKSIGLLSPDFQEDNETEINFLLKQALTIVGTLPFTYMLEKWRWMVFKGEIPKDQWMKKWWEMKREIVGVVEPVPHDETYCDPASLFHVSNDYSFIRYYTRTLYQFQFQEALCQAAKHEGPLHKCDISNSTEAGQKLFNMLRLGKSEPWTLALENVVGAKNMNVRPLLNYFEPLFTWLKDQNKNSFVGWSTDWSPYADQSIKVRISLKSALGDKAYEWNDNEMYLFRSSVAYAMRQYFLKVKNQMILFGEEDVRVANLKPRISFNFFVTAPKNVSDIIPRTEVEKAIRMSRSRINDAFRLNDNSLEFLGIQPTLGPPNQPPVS
Assay: ELISA screen
I only need the number, in OD, no unit after it.

Some binders with known Mean normalized OD results, for comparison:
>>> value("Cd22 CRD-mouse IgG2a-Fc fusion protein (Fc fusion) SANDWTVDHPQTLFAWEGACIRIPCKYKTPLPKARLDNILLFQNYEFDKATKKFTGTVLYNATKTEKDPESELYLSKQGRVTFLGNRIDNCTLKIHPIRANDSGNLGLRMTAGTERWMEPIHLNVSEGGGSGGGSGGGS")
0.006
>>> value("Ly75_8 CRD-mouse IgG2a-Fc fusion protein (Fc fusion) FQNSCYNFMITNNRHKTVTPEEVQSTCEKLHSKAHSLSIRNEEENTFVVEQLLYFNYIASWVMLGITYENNSLMWFDKTALSYTHWRTGRPTVKNGKFLAGLSTDGFWDIQSFNVIEETLHFYQGGGSGGGSGGGS")
0.054
>>> value("Clec14a CRD-mouse IgG2a-Fc fusion protein (Fc fusion) ASGACYSLHHATFKRRAAEEACSLRGGTLSTVHSGSEFQAVLLLLRAGPGPGGGSKDLLFWVALERSISQCTQEKEPLRGFSWLHPDSEDSEDSPLPWVEEPQRSCTVRKCAALQATRGVEPAGWKEMRCHLRTDGYLCKYGGGSGGGSGGGS")
0.029
>>> value("Reg3b CRD-mouse IgG2a-Fc fusion protein (Fc fusion) YGSYCYALFQIPQTWFDAELACQKRPGGHLVSVLNSAEASFLSSMVKRTGNSYQYTWIGLHDPTLGAEPNGGGWEWSNNDVMNYFNWERNPSTALDRAFCGSLSRASGFLKWRDMTCEVKLPYVCKGGGSGGGSGGGS")
-0.009
>>> value("Clec2i CRD-mouse IgG2a-Fc fusion protein (Fc fusion) VGNKCFYFSGYPRNWTFAQAFCMAQEAQLARFDNEEELIFLKRFKGDFDCWIGLHRESSEHPWKWTNNTEYNNMNPILGVGRYAYLSSDRISSSRSYINRMWICSGGGSGGGSGGGS")
-0.249

Could you now consider this next binder?
Q) Given the binder Asgr1 CRD-mouse IgG2a-Fc fusion protein (Fc fusion) YEGSCYWFSSSVRPWTEADKYCQLENAHLVVVTSRDEQNFLQRHMGPLNTWIGLTDQNGPWKWVDGTDYETGFQNWRPEQPDNWYGHGLGGGEDCAHFTTDGRWNDDVCRRPYRWVCEGGGSGGGSGGGS , write its reported Mean normalized OD.
A) 0.004
